Target system: T1, mouse SIRPβ1 on CHO cells (mouse)
T1 construct: Whole entry
T1 chain: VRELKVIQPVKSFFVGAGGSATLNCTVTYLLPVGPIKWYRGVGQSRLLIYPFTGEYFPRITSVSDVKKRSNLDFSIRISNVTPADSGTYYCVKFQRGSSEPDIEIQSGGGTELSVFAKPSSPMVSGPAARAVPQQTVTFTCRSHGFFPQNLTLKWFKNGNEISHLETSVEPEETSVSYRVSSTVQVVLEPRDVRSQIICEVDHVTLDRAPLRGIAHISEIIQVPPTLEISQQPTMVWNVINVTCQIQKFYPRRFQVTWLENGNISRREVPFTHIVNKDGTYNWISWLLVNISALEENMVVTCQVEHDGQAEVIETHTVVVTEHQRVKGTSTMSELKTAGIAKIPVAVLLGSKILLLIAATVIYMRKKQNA
Assay procedure: flow cytometry;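 further: antibody binding to cells detected with a PE-labelled secondary antibody, given as mean fluorescence intensity relative to background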
Quick reference for FOB among some binders

Below, 4 binders whose answers are already recorded.
[
  {
    "Binder": "SB-2-7 (antibody, V domains shown, IgG) VH: EVQLLESGGGLVQPGGSLRLSCAASGFTFARYGMHWVRQAPGKGLEWVSAISGLAGPTYADSVKGRFTISRDNSKNTLYLQMNSLRAEDTAVYYCARDQTAAAAIWGMDVWGQGTTVTVSS VL: EVVLTQSPGTLSLSPGERATLSCRASQSVSSSYLAWYQQKPGQAPRLLIYGASSRATGIPDRFSGSGSGTDFTLTISRLEPEDFAVYYCQQSSSHPFTFGGGTKVEIK",
    "FOB": "1 fold over background"
  },
  {
    "Binder": "SB-2-10 (antibody, V domains shown, IgG) VH: EVQLLESGGGLVQPGGSLRLSCAASGFTFGSYGMHWVRQAPGKGLEWVSAISGLAGQTYADSVKGRFTISRDNSKNTLYLQMNSLRAEDTAVYYCARDQTAAAAIWGMDVWGQGTTVTVSS VL: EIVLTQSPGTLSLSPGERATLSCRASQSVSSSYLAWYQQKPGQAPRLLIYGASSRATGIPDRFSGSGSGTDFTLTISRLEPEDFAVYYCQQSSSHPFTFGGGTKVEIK",
    "FOB": "2 fold over background"
  },
  {
    "Binder": "SB-1-3 (antibody, V domains shown, IgG) VH: EVQLVESGGGLVKPGGSLRLSCAASGFTFSAYGMNWVRQAPGKGLEWVSAITSSGRSTYYADSVKGRFTISRDNSKNTLYLQMNSLRAEDTAVYYCAKDFTEVVGWLGMDVWGQGTTVTVSS VL: EIVMTQSPGTLSLSPGERATLSCRASQSVSSSYLAWYQQKPGQAPRLLIYGASSRATGIPDRFSGSGSGTDFTLTISRLEPEDFAVYYCQLLGSSPRTFGGGTKVEIK",
    "FOB": "2 fold over background"
  },
  {
    "Binder": "SB-1-5 (antibody, V domains shown, IgG) VH: QVQLVESGGGVVQPGRSLRLSCAASGFTFSAYGMNWVRQAPGKGLEWVSAISASGRSTFYADSVKGRFTISRDNSKNTLYLQMNSLRAEDTAVYYCAKDFTEVVGWLGMDVWGQGTTVTVSS VL: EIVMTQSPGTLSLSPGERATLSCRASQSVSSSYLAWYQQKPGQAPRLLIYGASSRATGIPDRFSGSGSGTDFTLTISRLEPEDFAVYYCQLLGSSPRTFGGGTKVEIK",
    "FOB": "2 fold over background"
  }
]

Now consider a different binder.
So what's the measured FOB for this one? SB-2-11 (antibody, V domains shown, IgG) VH: QVQLVESGGGLVQPGGSLRLSCAASGFTFARYGMHWVRQAPGKGLEWVSAISGLAGPTYADSVKGRFTISRDNSKNTLYLQMNSLRAEDTAVYYCARDQTAAWGIWGMDVWGQGTTVTVSS VL: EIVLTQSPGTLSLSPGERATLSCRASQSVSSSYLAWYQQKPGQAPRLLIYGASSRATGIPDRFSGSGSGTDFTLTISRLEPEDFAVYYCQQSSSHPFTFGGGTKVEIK
2 fold over background
